Target: SHP2-C SH2
Experiment: SH2 binding enrichment of the phosphorylated peptide, bacterial display (enrichment ratio); higher = better substrate or ligand; peptides without Tyr show the background
measurement.type: SH2 binding enrichment

>>> value_measured("PPPELYFVKVD [TERT_Y707]")
1.04

(A) KGFCGYSFDDI [TMEM230_Y110_R108C_YF]
(B) RFVSRYIFNRE [HLA-DQB1_Y62_T60S_YF]
(C) LYSINYLHFGE [KDM4C_Y201]
(D) AFLLLYFNDTH [BMP15_Y235]
Prompt: With regard to SH2 binding enrichment, arrange the entries in ascending order, please. Returns: the labels listed in the requested order.
Completion: A, D, B, C

(I) EGQKIYIDDNN [PIP4K2A_Y246]
(II) QLAPQYTFAQG [FLNA_Y1761_YF]
Prompt: Form field 'greater SH2 binding enrichment' accepts I or II ; which applies? Use the label to indicate which entry you chose.
Completion: II

(A) VPVDGYISGLL [PAK6_Y81_M76V]
(B) VVIMLYGVDSR [PKD1_Y3143_G3139V]
Prompt: Returns the identifier with the smallest measured SH2 binding enrichment among A and B . Could you answer with the label of the item you picked?
Completion: A
(A: 0.568, B: 0.826)

(I) YEEDSYVTRSQ [RET_Y905_K907T]
(II) LDTFIYDAAVL [GRIN2A_Y730_A727T]
Prompt: Lab note: check whether I or II has the lower measured SH2 binding enrichment. Output the label that corresponds to your choice.
Completion: I
(I: 0.628, II: 0.921)

###

Biological target: SHP2-C SH2;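 further: peptide library displayed on the E. coli surface as eCPX fusions, selected cells deep-sequenced, score is each peptide's frequency after selection divided by its frequency in the input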
Assay: SH2 binding enrichment of the phosphorylated peptide, bacterial display (enrichment ratio); higher = better substrate or ligand; peptides without Tyr show the background
measurement.type: SH2 binding enrichment

Recorded results for 5 sequences are shown here.
>>> value_measured("CTLSVYRQLHN [LUZP1_Y1036]")
0.608
>>> value_measured("FSMGCYEIFLG [HMGCL_Y198_S201Y_YF]")
0.706
>>> value_measured("EKEQNYDLTQV [ECD_Y448_E452Q]")
0.508
>>> value_measured("GDYLSYREFHL [ERBIN_Y1107_S1112L]")
0.689
>>> value_measured("VCDSDYSASRW [LRP5_Y1552]")
0.697

(I) FQVRRYDCDCD [CRYGS_Y21_G18V]
(II) RCYVYYYSYLL [PTEN_Y177_R173C]
Prompt: Task for the reader: decide whether I or II has the larger SH2 binding enrichment. In your reply, give the label of the chosen option.
Completion: I
(I: 0.854, II: 0.51)

###

Tested on: c-Src;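 further: 11-residue human phosphosite peptides and single-mutation variants displayed on the E. coli surface, counted by deep sequencing, each peptide's frequency after selection divided by its frequency in the unselected input library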;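 further: frequency after pTyr selection over input frequency; kinase dosed for 20-30% of maximal phosphorylation in three min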
Experiment: phosphorylation enrichment, bacterial display (enrichment ratio); higher = better substrate or ligand; peptides without Tyr show the background
phosphorylation enrichment by entry:
Please state the value as a number alone, without comment.

Prompt: Report phosphorylation enrichment for PSQRRYLFFFS [PTEN_Y174_V175L_YF]
Completion: 0.441

Prompt: Answer with the recorded phosphorylation enrichment for the sequence listed here: KGFCGYSFDDI [TMEM230_Y110_R108C_YF]
Completion: 1.16

Prompt: Check the records and state phosphorylation enrichment for QKPLDYFRVNL [GALE_Y104_YF]
Completion: 0.711

Prompt: Name the recorded phosphorylation enrichment of the sequence listed here: CTLSVYRQLHN [LUZP1_Y1036]
Completion: 0.412

Prompt: Given ISSLDYISKSK [VAV3_Y294_T298S] , respond with its phosphorylation enrichment.
Completion: 0.478

Prompt: Kindly indicate its recorded phosphorylation enrichment. Item: ISRASYYRKGG [ALK_Y1282_Y1278S]
Completion: 0.509

Prompt: Identify phosphorylation enrichment associated with the sequence STSYDYCRVPM [BST2_Y8]
Completion: 1.13

Prompt: Please give the documented phosphorylation enrichment of AFEQQYSPIPR [NOX1_Y373]
Completion: 0.989

Prompt: Annotate the sequence TARWEYMHSPS [CPOX_Y429] with its measured phosphorylation enrichment.
Completion: 1.14

Prompt: Consider the sequence SARVRYLMAEK [LDHB_Y173_F171V] . State its measured phosphorylation enrichment.
Completion: 0.38

Prompt: Supply phosphorylation enrichment value. Item: DRLASYLEKVR [KRT13_Y118]
Completion: 0.412

Prompt: Tell me measured phosphorylation enrichment for ERLWDYGMSSS [F8_Y1728] please.
Completion: 0.419

Prompt: Determine its reported phosphorylation enrichment: VKANTYEKFWP [GATM_Y100_YF]
Completion: 2.69

Prompt: Return reported phosphorylation enrichment. Input sequence: NSIGNYFKPWF [DHCR24_Y299_YF]
Completion: 0.458

Prompt: Dear colleague, please send me the reported phosphorylation enrichment for VGTKRYMAPDV [ACVRL1_Y375_E379D] when you can.
Completion: 0.293

Prompt: Provide measured phosphorylation enrichment value, entry: FGPPQYNMQFS [ERBB2IP_Y977_I979M_YF]
Completion: 0.372
